Experiment: Solubility study: saturated solutions in SGF and FeSSIF, concentration by HPLC
Type: physicochemical
Conditions: SGF (simulated gastric fluids), equilibrated 4 h
test.readout: Solubility SGF (µg/mL)

Worked examples, 5 compounds total:
| compound | Solubility SGF, µg/mL |
| --- | --- |
| COc1cc(OC)c2c(=O)[nH]c(-c3cc(C)c(OCCO)c(C)c3)nc2c1 [Form CS9] | 310 |
| COc1cc(OC)c2c(=O)[nH]c(-c3cc(C)c(OCCO)c(C)c3)nc2c1 [Form CS4] | 280 |
| COc1cc(OC)c2c(=O)[nH]c(-c3cc(C)c(OCCO)c(C)c3)nc2c1 [Form CS7] | 420 |
| COc1cc(OC)c2c(=O)[nH]c(-c3cc(C)c(OCCO)c(C)c3)nc2c1 [Form CS20] | 410 |
| COc1cc(OC)c2c(=O)[nH]c(-c3cc(C)c(OCCO)c(C)c3)nc2c1 [Form CS1] | 290 |

P = COc1cc(OC)c2c(=O)[nH]c(-c3cc(C)c(OCCO)c(C)c3)nc2c1 [Form CS13]
Q = COc1cc(OC)c2c(=O)[nH]c(-c3cc(C)c(OCCO)c(C)c3)nc2c1 [Form CS11]
Q) Could you tell me which of P and Q has the lower Solubility SGF reading? Answer with the label corresponding to your selection.
A) P
